Source: patent US20140154255A1

- ASSAY SYSTEM: T1, human VEGF-A residues 27-191 of Accession #AAV38412 (human, UniProt P15692 27-191)
- T1 construct: range 27-191
- T1 sequence (P15692 other isoform, or with tags, fused parts or gaps limits assumed): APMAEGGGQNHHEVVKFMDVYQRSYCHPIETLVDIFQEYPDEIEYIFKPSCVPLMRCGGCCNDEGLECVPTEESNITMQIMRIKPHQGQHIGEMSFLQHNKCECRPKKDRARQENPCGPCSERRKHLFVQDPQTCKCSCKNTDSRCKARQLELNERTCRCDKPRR
- MEASUREMENT NOTES: BIAcore SPR
PROPERTY: kon (M⁻¹ s⁻¹)

>>> result("93 (antibody, human IgG1, V domains shown) VH: EVQLVESGGGLVQPGGSLRLSCAASGYTFTNYGMNWVRQAPGKGLEWVGWINTYTGEPTYAADFKRRFTFSLDTSKSTAYLQMNSLRAEDTAVYYCAKYPEYYGSSHWYFDVWGQGTLVTVSS VL: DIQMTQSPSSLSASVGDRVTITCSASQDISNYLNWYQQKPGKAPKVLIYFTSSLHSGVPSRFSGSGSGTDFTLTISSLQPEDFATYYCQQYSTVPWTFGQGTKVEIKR")
225000
>>> result("92 (antibody, human IgG1, V domains shown) VH: EVQLVESGGGLVQPGGSLRLSCAASGYTFTNYGMNWVRQAPGKGLEWVGWINTYTGEPTYAADFKRRFTFSLDTSKSTAYLQMNSLRAEDTAVYYCAKYPPYYGSSHWYFDVWGQGTLVTVSS VL: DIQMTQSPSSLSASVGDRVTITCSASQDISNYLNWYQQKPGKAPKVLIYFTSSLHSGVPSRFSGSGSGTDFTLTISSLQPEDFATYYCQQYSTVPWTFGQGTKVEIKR")
401000
>>> result("N31 Y (anti-VEGF IgG) (antibody, V domains shown, copies: 2 + 2) VH: EVQLVESGGGLVQPGGSLRLSCAASGYTFTYYGMNWVRQAPGKGLEWVGWINTYTGEPTYAADFKRRFTFSLDTSKSTAYLQMNSLRAEDTAVYYCAKYPHYYGSSHWYFDVWGQGTLVTVSS VL: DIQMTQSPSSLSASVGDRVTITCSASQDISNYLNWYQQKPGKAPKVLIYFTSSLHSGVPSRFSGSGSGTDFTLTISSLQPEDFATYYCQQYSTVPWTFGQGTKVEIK")
230000
